Test system: BaKynB (Bacillus anthracis)
Construct: gene kynB
Method notes: biochemical
Observation type: Kd

Prompt line: Give a short answer stating reported Kd for `Nc1ccccc1C(=O)C[C@H](N)C(=O)O` .
Response line: ~60 µM

----------
Test system: BaKynB (Bacillus anthracis, UniProt Q81PP9)
Construct: gene kynB
Sequence (Q81PP9 whole entry, looked up): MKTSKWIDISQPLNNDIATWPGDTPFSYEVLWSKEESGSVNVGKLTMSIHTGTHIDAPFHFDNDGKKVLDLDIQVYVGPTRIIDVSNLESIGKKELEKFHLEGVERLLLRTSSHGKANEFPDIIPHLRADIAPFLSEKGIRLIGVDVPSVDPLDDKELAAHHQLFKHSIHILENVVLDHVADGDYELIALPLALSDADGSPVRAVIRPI
Method notes: biochemical
Observation type: Kd

Prompt line: Give a short answer stating reported Kd for CC(=O)c1ccccc1N [2-aminoacetophenone] .
Response line: ~50 µM
